# testedSystem: T1, Human CD19-his protein (human, UniProt P15391 20-291)
# T1 construct: bought protein; also called recombinant human CD19-His; CD19 full-length protein; not shown: His tag
# T1 sequence (looked up): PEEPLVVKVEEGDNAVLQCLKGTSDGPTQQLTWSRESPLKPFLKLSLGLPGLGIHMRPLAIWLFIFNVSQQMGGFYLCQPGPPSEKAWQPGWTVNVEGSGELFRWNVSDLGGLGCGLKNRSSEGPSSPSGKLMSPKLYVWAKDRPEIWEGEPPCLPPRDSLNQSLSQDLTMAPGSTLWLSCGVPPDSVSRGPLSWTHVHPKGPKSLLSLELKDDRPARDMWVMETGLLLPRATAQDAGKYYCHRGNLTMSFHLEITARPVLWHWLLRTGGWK
# measurementProtocol: ELISA, coated human CD19-His
# Procedure: Human CD19-his protein (purchased from ACROBiosystems, catalog number: CD9-H52H2) was diluted with PBS to a final concentration of 4 μg/mL, and then added to a 96-well ELISA plate at 100 μl/well. […] The OD450 nm values were read by an ELISA microplate reader (Multimode Plate Reader, EnSight, purchased from Perkin Elmer).
recordedMetric: OD450 at 10 nM (OD450)
Quick note: give the figure in OD450, leave out the unit.

get_value(item= F3.121.4-L2H2 (antibody, mouse IgG1, kappa, V domains shown, humanized antibody of F3.121.4, VL2+VH2, murine IgG1 constant regions) VH: EVQLVQSGAEVKKPGASVKVSCKASGYTFTNYWMHWVRQAPGQGLEWMGEIDPSDNYANYNQEFQGRVTITVDKSASTAYMELSSLRSEDTAVYYCARHDGYFGALDYWGQGTTVTVSS VL: EIVLTQSPDFQSVTPKEKVTITCSASSSISSNYLHWYQQKPDQSPKLLIKRTSNLASGVPSRFSGSGSGTDFTLTINSLEAEDAATYYCQQASSIPRMFTFGQGTKLEIKR , readout=OD450 at 10 nM) returns 2.41

get_value(item= F3.121.4-L2H1 (antibody, mouse IgG1, kappa, V domains shown, humanized antibody of F3.121.4, VL2+VH1, murine IgG1 constant regions) VH: EVQLVQSGAEVKKPGASVKVSCKASGYTFTNYWMHWVRQAPGQRLEWMGEIDPSDNYANYNQEFQGRVTITVDKSASTAYMELSSLRSEDTAVYYCARHDGYFGALDYWGQGTTVTVSS VL: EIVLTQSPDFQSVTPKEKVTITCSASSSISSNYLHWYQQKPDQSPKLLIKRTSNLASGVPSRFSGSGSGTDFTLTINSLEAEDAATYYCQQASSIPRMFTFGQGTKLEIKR , readout=OD450 at 10 nM) returns 2.45

get_value(item= F3.121.4-L1H1 (antibody, mouse IgG1, kappa, V domains shown, humanized antibody of F3.121.4, VL1+VH1, murine IgG1 constant regions) VH: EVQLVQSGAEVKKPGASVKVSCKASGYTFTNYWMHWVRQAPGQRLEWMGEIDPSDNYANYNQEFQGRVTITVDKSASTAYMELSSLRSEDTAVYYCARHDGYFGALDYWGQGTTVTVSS VL: EIVLTQSPATLSLSPGERATLSCSASSSISSNYLHWYQQKPGQAPRFLIYRTSNLASGIPARFSGSGSGTDFTLTISSLEPEDFAVYYCQQASSIPRMFTFGQGTKLEIKR , readout=OD450 at 10 nM) returns 2.64
